test system: prototrophic yeast strain (CEN.PK113-7D); test: Propidium iodide fluorescence-based CLS method in yeast (incl. high-throughput screening); assay type: cell-based, Saccharomyces cerevisiae; conditions: concentration tested 100 μM; solvent DMSO or water; chronological age point Day 7 (72 h growth = Day 1); lower = more survival;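 also: untreated reference is eight DMSO and water control wells per plate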
QUANTITY_KIND: PI intensity

[[record]]
molecule = "O=c1cc(O)cc(/C=C/c2ccc(O)c(O)c2)o1"
experimental_system = "prototrophic yeast strain (CEN.PK113-7D)"
assay_result = "67,098.8"

[[record]]
molecule = "Oc1cc(O)c2c(c1)O[C@H](c1cc(O)c(O)c(O)c1)[C@H](O)C2 [(−)-Epigallocatechin]"
experimental_system = "prototrophic yeast strain (CEN.PK113-7D)"
assay_result = "62,025.6"

[[record]]
molecule = "O=C1c2c(O)cccc2[C@@H]([C@@H]2O[C@H](CO)[C@@H](O)[C@H](O)[C@H]2O)c2cc(CO)cc(O)c21"
experimental_system = "prototrophic yeast strain (CEN.PK113-7D)"
assay_result = "89,712.0"

[[record]]
molecule = "Cl.Cl.[O-][S+]1c2ccccc2N=C(N2CCN(CCOCCO)CC2)c2ccccc21 (stereo not drawn) [Quetiapine sulfoxide (dihydrochloride)]"
experimental_system = "prototrophic yeast strain (CEN.PK113-7D)"
assay_result = "68,761.6"

[[record]]
molecule = "Br.CCN1C[C@]2(OC(=O)c3ccccc3NC(C)=O)CC[C@H](OC)[C@@]34[C@@H]2C[C@@H]([C@@H]13)[C@@]1(O)C[C@H](OC)[C@H]2C[C@@H]4[C@]1(O)[C@H]2OC [Lappaconitine (hydrobromide)]"
experimental_system = "prototrophic yeast strain (CEN.PK113-7D)"
assay_result = "76,000.0"

[[record]]
molecule = "CC1(C)CC[C@]2(C(=O)O)CC[C@]3(C)C(=CC[C@@H]4[C@@]5(C)CC[C@H](O)[C@@](C)(CO)[C@@H]5CC[C@]43C)[C@@H]2C1"
experimental_system = "prototrophic yeast strain (CEN.PK113-7D)"
assay_result = "73,281.0"

